The following sequences are listed with their measured binding signal values.
Target: GST-Rok (full length) (Bacillus subtilis subsp. subtilis str. …, UniProt O34857 1-191)
Sequence: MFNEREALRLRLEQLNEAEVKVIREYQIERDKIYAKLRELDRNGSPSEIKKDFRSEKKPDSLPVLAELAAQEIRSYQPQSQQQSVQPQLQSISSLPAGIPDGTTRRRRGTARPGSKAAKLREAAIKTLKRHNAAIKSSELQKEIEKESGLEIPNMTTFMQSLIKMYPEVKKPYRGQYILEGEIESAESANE
Test: protein binding microarray; Rok is a gene silencer of Bacillus subtilis; high values mean tight binding
Conditions: protein: recombinant; tags: GST (pTH5325, pDEST15-Magic modified); dsDNA, one strand shown
In all, about 33,000 sequences were measured (“e-score”: median about -0.037, highest 2% from about 0.34 on). This excerpt belongs to a sample that is enriched for the highest values.
measured-metric: binding signal (E-score)

{"sequence-record": "CGAAATTA", "readout-number": 0.269}
{"sequence-record": "GCTCCTAC", "readout-number": -0.158}
{"sequence-record": "GGAGTAAA", "readout-number": -0.112}
{"sequence-record": "ACTAAAAA", "readout-number": 0.21}
{"sequence-record": "GCTAGTCA", "readout-number": -0.0821}
{"sequence-record": "AACGTTAC", "readout-number": -0.0148}
{"sequence-record": "ATAAGAGA", "readout-number": -0.0183}
{"sequence-record": "CTCTTCGC", "readout-number": 0.197}
{"sequence-record": "ACTAGTTC", "readout-number": 0.329}
{"sequence-record": "GATCGAAA", "readout-number": -0.0281}
{"sequence-record": "AACTTCTA", "readout-number": 0.296}
{"sequence-record": "ACTAAATC", "readout-number": 0.343}
{"sequence-record": "GTAGTAAC", "readout-number": 0.321}
{"sequence-record": "AGAAATTC", "readout-number": 0.228}
{"sequence-record": "GAATTTAC", "readout-number": 0.268}
{"sequence-record": "AATGTTGT", "readout-number": 0.154}
{"sequence-record": "AACGACGA", "readout-number": 0.183}
{"sequence-record": "ACTAAAAC", "readout-number": 0.303}
{"sequence-record": "ATAGTCTA", "readout-number": 0.0771}
{"sequence-record": "ACTAGTCG", "readout-number": 0.292}
{"sequence-record": "TACTTCTA", "readout-number": 0.36}
{"sequence-record": "CATTGTTC", "readout-number": 0.00988}
{"sequence-record": "AAATTTAT", "readout-number": 0.351}
{"sequence-record": "TAATTCAA", "readout-number": 0.105}
{"sequence-record": "TAATTCCA", "readout-number": 0.213}
{"sequence-record": "GTAAAATA", "readout-number": 0.328}
{"sequence-record": "AGAGTAAT", "readout-number": 0.197}
{"sequence-record": "AAATTTAG", "readout-number": 0.163}
{"sequence-record": "CGAAATTC", "readout-number": 0.341}
{"sequence-record": "GCTCTCAA", "readout-number": -0.174}
{"sequence-record": "ACGTTCAA", "readout-number": -0.0397}
{"sequence-record": "ACTAAATA", "readout-number": 0.3}
{"sequence-record": "CGCCGACG", "readout-number": -0.0281}
{"sequence-record": "CAATTCTA", "readout-number": 0.278}
{"sequence-record": "ACTAAAAT", "readout-number": 0.406}
{"sequence-record": "ATAGTAAT", "readout-number": 0.392}
{"sequence-record": "GATGAACC", "readout-number": -0.136}
